src = PubChem BioAssay AID2110

# Tgt: Lysosomal alpha-glucosidase (Homo sapiens) (UniProt P10253)
# Test Summary: Confirmation of Inhibitors and Activators of Purified Human alpha-Glucosidase Using an Alternate Red Fluorescent Susbtrate
# Conditions: purified enzyme, red fluorogenic substrate; series mostly up to 63.4 µM
# Excerpt: NIH Chemical Genomics Center [NCGC] NIH Molecular Libraries Probe Production centers Network [MLPCN] Assay Submitter (PI): Wei Zheng […] This is a fluorogenic enzyme assay with resorufin-alpha-D-pyranoside as the substrate and recombinant human alpha-glucosidase as the enzyme preparation. Upon the hydrolysis of this fluorogenic substrate, the resulting product, resorufin, can be excited at 573 nm and emits at 610 nm which can be detected by a standard fluorescence plate reader. […]
Inconclusive results are not listed. Calls of active or inactive are those of the source. The call rests on the fitted dose curve; in most records, active means well fitted curve in either direction with a large enough effect; inconclusive means small, poorly fitted or top-dose-only effect; inactive means no such curve, though single readings can be large or run the other way.
Result category, one only: active, inactive

Hi, sorry to bother you, what did the test record for CC(=O)c1ccc(N2CCN(S(=O)(=O)c3ccc4c(c3)CCCN4C(C)=O)CC2)cc1 ?
inactive

Hi, sorry to bother you, what did the test record for CCCN1CNc2c(c(=O)[nH]c(=S)n2CCc2ccc(OC)cc2)C1 ?
active

Hi, sorry to bother you, what did the test record for CCCN1CNc2c(c(=O)[nH]c(=S)n2CCc2c(Cl)cccc2Cl)C1 ?
active

Hi, sorry to bother you, what did the test record for Clc1ncc(C#Cc2ccccc2)c2ncncc12 ?
inactive

More entries:
Hi, sorry to bother you, what did the test record for COc1ccc(CCc2c[nH]c(=O)c3cncnc23)cc1OC ?
inactive

Hi, sorry to bother you, what did the test record for CC(=O)c1ccc(N2CCN(S(=O)(=O)c3ccc4c(c3)C(Cl)(Cl)C(=O)N4)CC2)cc1 ?
active

Hi, sorry to bother you, what did the test record for CC(=O)c1ccc(N2CCN(S(=O)(=O)c3ccc4c(c3)C(=O)OC4)CC2)cc1 ?
inactive

Hi, sorry to bother you, what did the test record for CCCN1CNc2c(c(=O)[nH]c(=S)n2CCc2ccc(Cl)c(Cl)c2)C1 ?
active

Hi, sorry to bother you, what did the test record for COc1ccc(CCn2c(=S)[nH]c(=O)c3[nH]cnc32)cc1OC ?
inactive

Hi, sorry to bother you, what did the test record for Cc1ccc(N2CCN(S(=O)(=O)c3ccc4c(c3)CC(=O)N4)CC2)cc1 ?
inactive
